Consider the following binders and their measured BMPRIb binding (relative to wild type = 1.0) readings.
# targetSystem: T1, BMPRIb receptor-Fc fusion (UniProt O00238 14-126)
# T1 construct: BMP receptor-Fc fusion used at 5 ug/mL; also called ALK-6
# T1 sequence (looked up): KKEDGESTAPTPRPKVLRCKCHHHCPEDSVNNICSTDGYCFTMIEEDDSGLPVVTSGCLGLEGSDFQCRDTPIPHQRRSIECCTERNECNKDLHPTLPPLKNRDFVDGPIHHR
# experimentSummary: ELISA-like plate assay, captured BMP-7 from conditioned media, receptor-Fc detection

Example cases with answers are listed next.
Entry BMP-7 variant R134K (ligand, In conditioned media; numbering on mature BMP-7) STGGKQRSQNRSKTPKNQEALRMASVAENSSSDQRQACKKHELYVSFRDLGWQDWIIAPEGYAAYYCEGECAFPLNSYMNATNHAIVQTLVHFINPETVPKPCCAPTQLNAISVLYFDDSSNVILKKYRNMVVKACGCH ; BMPRIb binding (relative to wild type = 1.0) = 1.11 relative to wild type

// BMP-7 variant E60P (ligand, In conditioned media; numbering on mature BMP-7) STGGKQRSQNRSKTPKNQEALRMASVAENSSSDQRQACKKHELYVSFRDLGWQDWIIAPPGYAAYYCEGECAFPLNSYMNATNHAIVQTLVHFINPETVPKPCCAPTQLNAISVLYFDDSSNVILKKYRNMVVRACGCH : BMPRIb binding (relative to wild type = 1.0) value = 0.53 relative to wild type

// BMP-7 variant K39A (ligand, In conditioned media; numbering on mature BMP-7) STGGKQRSQNRSKTPKNQEALRMASVAENSSSDQRQACAKHELYVSFRDLGWQDWIIAPEGYAAYYCEGECAFPLNSYMNATNHAIVQTLVHFINPETVPKPCCAPTQLNAISVLYFDDSSNVILKKYRNMVVRACGCH : BMPRIb binding (relative to wild type = 1.0) value = 2.86 relative to wild type

Continue with the next binder.
response.value for BMP-7 variant R48H (ligand, In conditioned media; numbering on mature BMP-7) STGGKQRSQNRSKTPKNQEALRMASVAENSSSDQRQACKKHELYVSFHDLGWQDWIIAPEGYAAYYCEGECAFPLNSYMNATNHAIVQTLVHFINPETVPKPCCAPTQLNAISVLYFDDSSNVILKKYRNMVVRACGCH (field: BMPRIb binding (relative to wild type = 1.0)) = 3.58 relative to wild type
